Test system: CCRIS mutagenicity, Ames/micronucleus/aberration tests
procedure.details: CCRIS mutagenicity studies
run.conditions: Test System: AMES SALMONELLA TYPHIMURIUM; Strain/Indicator: TA98; Metabolic Activation: RAT, LIVER, S-9, PCB; Method: PREINCUBATION
Active and inactive are the calls of the source. How the calls were made is not given here.
Allowed answers: yes (1) for active, no (0) for inactive

Please review the entries below; each comes with its answer.
Req: What call does the record list for Nc1nc(-c2ccc([N+](=O)[O-])cc2)nc2c1ncn2[C@H]1C[C@H](O)[C@@H](CO)O1 ?
Resp: yes (1)

Req: Name the outcome recorded for O=Cc1c(O)cc2c(c1O)C(=O)c1ccccc1C2=O in the assay.
Resp: no (0)

Req: What call does the record list for [O-][n+]1ccc2cnncc2c1 ?
Resp: yes (1)

Req: Hi team, can someone confirm the assay call for c1ccc2ncccc2c1 ?
Resp: yes (1)

Req: Kindly provide the recorded test outcome for the following compound: NCc1cccc(CN)c1
Resp: no (0)

Req: // param item: CNc1ccc2ncc(C)nc2c1C ; yields the recorded call
Resp: yes (1)

Turning now to a further compound:
Req: Per the assay record, what outcome was assigned to COc1ccc2c(c1)c(CC(=O)O)c(C)n2C(=O)c1ccc(Cl)cc1 ?
Resp: no (0)

----------
Test system: CCRIS mutagenicity, Ames/micronucleus/aberration tests
procedure.details: CCRIS mutagenicity studies
run.conditions: Test System: AMES SALMONELLA TYPHIMURIUM; Strain/Indicator: TA100; Metabolic Activation: RAT, LIVER, S-9, AROCLOR 1254; Method: STANDARD PLATE
Activity calls are given as the source filed them. No rule for the calls is given here.
Respond using exactly one of the listed classes: 1 (active), -1 (inactive)

Req: Just curious, what result did Nc1ccc(CCc2ccccc2)cc1 get here?
Resp: 1

Req: What is the recorded call for this compound in the test? C=CC1CO1 (stereo not drawn)
Resp: 1

Req: Please indicate how the test categorized CC(C)c1c(C(=O)Nc2ccccc2)c(-c2ccccc2)c(-c2ccc(F)cc2)n1CC[C@@H](O)C[C@@H](O)CC(=O)O .
Resp: -1

Req: Just curious, what result did O=Cc1ccc2ccc3cccc4ccc1c2c34 get here?
Resp: 1

Req: Outcome logged for S=C1NCCN1 in this assay:
Resp: -1

---
Req: Name the outcome recorded for O=P(OCC(Br)CBr)(OCC(Br)CBr)OCC(Br)CBr (stereo not drawn) in the assay.
Resp: 1

Req: Tell me the recorded outcome of this test for CCCCOCCO .
Resp: -1

Req: Per the assay record, what outcome was assigned to CCCCC(CC)COC(=O)c1ccc(N(C)C)c([N+](=O)[O-])c1 (stereo not drawn) ?
Resp: -1

Req: Check the results log: what was the call for Fc1ccc2cc3c(cc2c1)-c1cccc2cccc-3c12 ?
Resp: 1

Req: Dear colleague, could you share the recorded outcome for Cc1cc(N)c([N+](=O)[O-])c(C)c1N when you have a moment?
Resp: -1

Req: Record lookup: outcome of this test for C1OCOCO1 ?
Resp: -1

Req: Recorded test outcome, item CC(C)NNC(=O)c1ccncc1
Resp: -1

Req: Tell me the assay call for O=C(CCCN1CCN(c2ccccn2)CC1)c1ccc(F)cc1 please.
Resp: -1

Req: Hey, what did the test say about CC(C)CCON=O ?
Resp: -1

Req: Tell me the recorded outcome of this test for Nc1c(S(=O)(=O)O)cc(NC2CCCCC2)c2c1C(=O)c1ccccc1C2=O .
Resp: -1

Req: Outcome logged for c1ccc2c(c1)c1ccccc1c1ccccc21 in this assay:
Resp: 1

Req: What did the test return for CN(C)C(=O)c1nc2n(n1)-c1ccc(Cl)cc1C(c1ccccc1Cl)=NC2 ?
Resp: -1

Req: Test call for this compound, please: Nc1ccc(/C=C/c2ccccc2)cc1
Resp: 1

Req: Look up the recorded call for ClC1C(Cl)C(Cl)C(Cl)C(Cl)C1Cl (stereo not drawn) in this test.
Resp: -1

Req: Could you check what this test reported for c1ccc2c(c1)-c1cccc3c1c-2cc1ccccc13 ?
Resp: 1

Req: Could you please tell me the result logged for CCC(=O)N(c1ccc(Cl)c(Cl)c1)[C@@H]1CCC[C@H]1N(C)C in this assay?
Resp: -1

Req: Which outcome was entered for the compound CCCCC=O in this test?
Resp: -1

Req: Would you mind telling me which call this test gave C1=Cc2cc3ccccc3c3cccc1c23 ?
Resp: 1

Req: Check the results log: what was the call for O=C(/C=C/c1ccc([N+](=O)[O-])cc1)c1ccccc1 ?
Resp: 1

----------
Test system: CCRIS mutagenicity, Ames/micronucleus/aberration tests
procedure.details: CCRIS mutagenicity studies
run.conditions: End Point: In vitro chromosomal aberrations; Test System: Chinese hamster lung (CHL/IU) cells; Metabolic Activation: Rat, Liver, S9, Phenobarbital and 5,6-benzoflavone
Activity calls are given as the source filed them. No rule for the calls is given here.
Form entry, call: pick from class 1 for active, class 0 for inactive

As a guide, the following entries are already answered.
Req: How was O=C(Cl)c1ccc([N+](=O)[O-])cc1 classified in this test?
Resp: class 0

Req: Per the assay record, what outcome was assigned to O=C1C=CC(=O)c2ccccc21 ?
Resp: class 1

Req: Hey, what did the test say about O=C(O)c1cc2ccccc2cc1O ?
Resp: class 1

Req: Identify the outcome logged in this assay for the compound shown: CN(C)c1ccccc1
Resp: class 1

More entries:
Req: Look up the recorded call for COc1ccc(C)cc1N in this test.
Resp: class 1

Req: Outcome? c1ccc(Nc2ccccc2)cc1
Resp: class 1

Req: Hi, sorry to bother you, what did the test record for CC(C)(C)CC(C)(C)c1ccc(O)cc1 ?
Resp: class 1

----------
System: CCRIS mutagenicity, Ames/micronucleus/aberration tests
procedure.details: CCRIS mutagenicity studies
run.conditions: Test System: AMES SALMONELLA TYPHIMURIUM; Strain/Indicator: TA100; Metabolic Activation: HAMSTER, LIVER, S-9, AROCLOR 1254 (10%); Method: PREINCUBATION
Activity calls are given as the source filed them. The rule behind the calls is not given here.
Answer with one of the outcomes 1 (active), -1 (inactive)

Answered examples (10):
Req: Per the records of this test, what outcome belongs to O=C(Cl)c1ccc([N+](=O)[O-])cc1 ?
Resp: 1

Req: What classification did Cc1ccc(N=Nc2c(O)ccc3ccccc23)c([N+](=O)[O-])c1 end up with in this test?
Resp: 1

Req: Record request — test call for Cc1cccc(C)c1N
Resp: -1

Req: Name the outcome recorded for CCCCC/C=C\C/C=C\CCCCCCCC(=O)O in the assay.
Resp: -1

Req: For Nc1ccc(O)c([N+](=O)[O-])c1 , what call appears in the results of this test?
Resp: -1

Req: In this assay, the call recorded for CN(C)C was what?
Resp: -1

Req: For C=CC(=O)OCCOCCOCCOCCOC(=O)C=C , what call appears in the results of this test?
Resp: -1

Req: # outcome recorded in this test, key = OCC(Br)CBr (centres undefined)
Resp: 1

Req: Any idea what this test logged for Nc1cc(Cl)ccc1Cl ?
Resp: -1

Req: Per the assay record, what outcome was assigned to CCOC(=O)c1ccccc1N ?
Resp: -1

Further cases:
Req: Which result was noted for this molecule in the test: O=Cc1ccc(Cl)c(Cl)c1
Resp: -1

Req: Dear colleague, could you share the recorded outcome for Cc1ccc(Br)cc1 when you have a moment?
Resp: -1

----------
Tested on: CCRIS mutagenicity, Ames/micronucleus/aberration tests
procedure.details: CCRIS mutagenicity studies
run.conditions: Test System: AMES SALMONELLA TYPHIMURIUM; Strain/Indicator: TA100; Metabolic Activation: RAT, LIVER, S-9, PHENOBARBITAL; Method: STANDARD PLATE
Calls of active or inactive are those of the source. The rule behind the calls is not given here.
Write down one outcome, taken from 1 for active, -1 for inactive

Here are 6 compounds together with their reported answers.
Req: Please let me know the test result on file for Cc1c2ccccc2cc2c1ccc1ccccc12 .
Resp: 1

Req: Entry O=C(O)CC(O)C(=O)O (stereo unspecified) : call = ?
Resp: -1

Req: I'd appreciate the recorded outcome for COc1cc2c(c3oc4cccc(O)c4c(=O)c13)[C@@H]1C=CO[C@@H]1O2 from this test.
Resp: 1

Req: What classification did c1ccccc1 end up with in this test?
Resp: -1

Req: Just curious, what result did COc1cc(O)c2c(=O)c3c(OC)cc4c(c3oc2c1OC)[C@@H]1C=CO[C@@H]1O4 get here?
Resp: 1

Req: Assay result, entry CN(C)c1ccc(/C=C/c2ccccc2)cc1 — outcome?
Resp: 1

More entries:
Req: In this assay, the call recorded for OC(CCl)CCl was what?
Resp: 1

Req: Query: recorded result category for Nc1ccc(/C=C/c2ccccc2)cc1 in this test
Resp: 1

Req: How did this test come out for O=c1c2c(O)cccc2oc2cc3c(c(O)c12)[C@@H]1CCO[C@@H]1O3 ?
Resp: -1

Req: Any idea what this test logged for CCOC(=O)COc1ccc2c(=O)cc(-c3ccccc3)oc2c1 ?
Resp: -1

Req: What call does the record list for O=c1c2c(O)cccc2oc2cc3c(c(O)c12)[C@@H]1C=CO[C@@H]1O3 ?
Resp: -1

Sourced from PubChem BioAssay AID1259407
